Assayed System: T1, hIL-3 receptor (human, UniProt P26951)
T1 sequence: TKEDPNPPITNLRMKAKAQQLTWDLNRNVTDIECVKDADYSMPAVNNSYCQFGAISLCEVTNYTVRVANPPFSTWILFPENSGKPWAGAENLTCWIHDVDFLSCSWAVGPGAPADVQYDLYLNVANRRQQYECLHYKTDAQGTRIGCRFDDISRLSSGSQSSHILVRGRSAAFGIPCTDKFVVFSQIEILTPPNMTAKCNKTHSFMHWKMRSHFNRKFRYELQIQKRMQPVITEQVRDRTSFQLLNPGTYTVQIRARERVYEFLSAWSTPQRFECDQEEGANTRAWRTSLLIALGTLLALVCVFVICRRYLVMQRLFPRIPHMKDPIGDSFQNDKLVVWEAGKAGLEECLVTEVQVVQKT
Assay Name: cell-based or functional assay
Experimental Endpoint: Relative Biological Activity (AML 193 proliferation)

Previously resolved entries follow.
pMON13375 polypeptide (ligand) MANCSIMIDEIIHHLKRPPAPLLDPNNLNAEDVDILMERNLRLPNLESFVRAVKNLENASGIEAILRNLQPCLPSATAAPSRHPIIIKAGDWQEFREKLTFYLVTLE; 14 EC50 (1-133)hIL-3 / EC50 mutant
pMON13392 polypeptide (ligand) MANCSIMIDEIIHHLKRPPAPLLDPNNLNDEDVDILMERNLRLPNLESFVRAVKNLENASGIEAILRNLQPCLPSATAAPSRHPIIIKAGDWQEFREKLTFYLVTLEQAQEQQ; 17 EC50 (1-133)hIL-3 / EC50 mutant

Record Relative Biological Activity (AML 193 proliferation) per entry; entries follow.
1. pMON13292 polypeptide (ligand) MANCSIMIDEIIHHLKVPPAPLLDSNNLNSEDMDILMERNLRLPNLLAFVRAVKNLENASGIEAILRNLVPCLPSATAAPSRHPITIKAGDWQEFREKLTFYLVTLEQAQEQQ
2. pMON13367 polypeptide (ligand) MANCSIMIDEIIHHLKRPPAPLLDPNNLNAEDVSILMDRNLRLPNLESFVRAVKNLENASGIEAILRNLQPCLPSATAAPSRHPIIIKAGDWQEFREKLTFYLVTLEQAQEQQ

Result ::
1: 6 EC50 (1-133)hIL-3 / EC50 mutant; 2: 36 EC50 (1-133)hIL-3 / EC50 mutant
